- Experimental System: T1, SNV nucleocapsid protein N wild type (SNVN) (Sin Nombre hantavirus, UniProt Q89462 1-428)
- T1 sequence: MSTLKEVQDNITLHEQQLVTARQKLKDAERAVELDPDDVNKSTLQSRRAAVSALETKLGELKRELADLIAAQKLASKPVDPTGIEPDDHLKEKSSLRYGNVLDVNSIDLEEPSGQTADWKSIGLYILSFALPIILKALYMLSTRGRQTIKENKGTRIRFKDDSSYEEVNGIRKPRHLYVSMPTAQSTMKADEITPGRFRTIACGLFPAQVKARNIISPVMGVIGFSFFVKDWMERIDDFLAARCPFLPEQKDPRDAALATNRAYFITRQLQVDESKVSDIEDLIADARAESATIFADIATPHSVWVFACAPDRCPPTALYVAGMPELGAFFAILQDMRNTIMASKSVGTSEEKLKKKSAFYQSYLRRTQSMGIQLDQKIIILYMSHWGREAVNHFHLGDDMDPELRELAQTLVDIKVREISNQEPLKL
- Assay: BLI
Kd values, listed per item
Provide only the numeric value, understood in nM.

{"Binder": "GAUAUGUGAG (ssRNA, 5' mRNA cap (enzymatic, Cell Script)) [capped decameric RNA]", "Unit Of Measurement": "nM", "Kd": 106}

Query binder follows.
### Prompt Record request: Kd value, item GAUAUGUGAG (ssRNA) [uncapped decameric RNA]
### Response 477
